From: PubChem BioAssay AID1076

Please respond with reported cell event count for every item in the list.
Assay: LNCaP cell loss by flow event count, confirmation, cytotoxicity control for prostate differentiation activator project, single point (AID 1076);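 further: counts scatter-gated live cells after medium removal discards detached dead cells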
Settings: flow cytometry event count, 4 d, event count, at 10 µM, stronger effect = lower value
// no unit, no text: just the number

IN: What cell event count value was documented for this compound, Cc1ccc(Nc2cc(=O)n(C3CCCCC3)c(=O)[nH]2)cc1C ?
OUT: 62.5

IN: Consider the compound CCCCn1c2c(c3ccccc31)CCc1nonc1-2 and give its measured cell event count.
OUT: 128

IN: For Cc1ccc(-c2noc(CCC(=O)NC3CCN(Cc4ccccc4)CC3)n2)cc1 , what is its reported cell event count?
OUT: 77.5

IN: Given COCCn1c(=O)[nH]c2cc(C(=O)NCCCN3CCN(c4ccc(F)cc4)CC3)ccc2c1=O , state its recorded cell event count.
OUT: 194

IN: If you can, please state the reported cell event count value of CCc1ccc(CNC(=O)CN2C(=O)COc3ccccc32)cc1 .
OUT: 118
